- experiment-summary: physchem
- study-conditions: LogP
metric-name: logP
API note: the answer field is a bare number with no unit suffix.

Supply measured logP of CC(C)=CCCC(C)CCO (stereo not drawn) [Beta-citronellol] in your reply.
3.56

* * *

- experiment-summary: LogP (1-octanol/water partition coefficient) of terpenes, slow-stirring method
metric-name: logP
Quick one: just the number, no unit, thanks!

Give logP for the following compound: C=CC(C)(CCC=C(C)C)OC(C)=O (stereo not shown) [Linalyl acetate]
3.92
